target: T1, human CASKIN2 SH3 domain (aa. 284-348), wild type (human, UniProt Q8WXE0 284-348); assay: other fluorescence titration; peptide titrated into 1 μM SH3 domain; 10 mM Tris-HCl, pH 7.5, 150 mM NaCl, 0.05 % sodium azide; intrinsic tryptophan fluorescence, excitation 280 nm, emission 340 nm; fitted to a 1:1 protein to peptide complex; conditions: both partners purified
T1 construct: CASKIN2, human, SH3 domain, residues 284-348, UniProt Q8WXE0; Cloned into BamHI/XhoI of pGEX4T2; Isotopically labelled (15N and/or 13C) for NMR; also called wild type CASKIN2 SH3 domain; WT
T1 sequence (Q8WXE0 284-348): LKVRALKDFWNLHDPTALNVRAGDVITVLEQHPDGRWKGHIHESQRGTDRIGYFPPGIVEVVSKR
quantity.measured: pKd
Answers are plain numbers, as −log10 of the molar value.

Query string: Fill in reported pKd for this entry: YTPMVRENKPP (peptide derived from the protein UBPY, corresponding to the UBPY ligand in the STAM2 SH3 domain structure PDB 1UJ0; contains an RxxKP motif; also called Class-III UBPY peptide; STAM2 ligand; source: synthetic peptide (Canpeptide, Montreal; > 90 % purity)) [UBPY peptide YTPMVRENKPP]
Result string: 4.41
